# TARGET: Prolyl endopeptidase-like (Homo sapiens)
# ASSAY: human PREPL enzyme inhibitors, confirmation, biochemical, fluorescence polarization (AID 2803)
# CONDITION: recombinant PREPL, fluorescence polarization activity probe; at 5.96 µM
The whole screen tested about 2,000 compounds, of which about 1,300 (65%) were called active. Cut-off read from the data, not from the text of the source: active = inhibition above about 43%; inactive = the rest. The set was probably picked from earlier hits. Only a sample is shown.
Write down the outcome that applies. Available outcomes: active, inactive

Query: Lab log entry: `CC(=O)N1CCN(c2ccc(NCc3ccc(C(C)C)cc3)cc2)CC1` — outcome as called in the assay?
Result: active

Query: Kindly provide the recorded test outcome for the following molecule: `CC(C)(C)Nc1nc(-c2ccccn2)nc2ccccc12`
Result: active

Query: Per the records of this test, what outcome belongs to `N#C/C(=C/c1ccc(N2CCCCC2)o1)C(=O)NCCc1c[nH]c2ccccc12` ?
Result: active

Query: Can you look up the reported call for `O=C1N=C(N2CCc3ccccc3C2)S/C1=C\c1ccc(O)cc1` for me?
Result: active

Query: Recorded test call requested for `COc1ccc(NC(C)=O)cc1NC(=O)CN1CCN(C2c3ccccc3-c3ccccc32)CC1`
Result: inactive

Query: # outcome recorded in this test, key = `CCN(CC)c1ccc2cc(C(N)=O)/c(=N\NC(=O)c3ccncc3)oc2c1`
Result: active

Query: Hi, sorry to bother you, what did the test record for `O=C(c1cc(C(=O)N2CCN(c3ccc(F)cc3)CC2)cc([N+](=O)[O-])c1)N1CCN(c2ccc(F)cc2)CC1` ?
Result: active
